system.name: T1, human GITR (amino acids M1-V241, NCBI Accession #NP_004186.1) expressed on cells (human, UniProt Q9Y5U5 26-241)
T1 sequence: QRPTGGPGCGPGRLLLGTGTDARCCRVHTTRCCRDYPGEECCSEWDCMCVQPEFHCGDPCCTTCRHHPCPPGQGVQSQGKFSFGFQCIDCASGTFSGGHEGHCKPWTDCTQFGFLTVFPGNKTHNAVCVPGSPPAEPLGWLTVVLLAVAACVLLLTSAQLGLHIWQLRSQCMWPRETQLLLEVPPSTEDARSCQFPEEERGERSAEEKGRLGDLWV
assay.name: cell-based or functional assay
quantity: fold activation, T-cell proliferation, plate-bound Ab 10.6 nM, donor 8 (fold)

# binder, unit.of.measurement, observed.value
data = [
    ("H4H14508P (antibody, human IgG4, V domains shown, human IgG4 (H4H)) VH: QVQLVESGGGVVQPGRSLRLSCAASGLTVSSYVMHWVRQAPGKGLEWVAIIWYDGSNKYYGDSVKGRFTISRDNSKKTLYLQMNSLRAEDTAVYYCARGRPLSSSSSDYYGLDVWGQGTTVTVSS VL: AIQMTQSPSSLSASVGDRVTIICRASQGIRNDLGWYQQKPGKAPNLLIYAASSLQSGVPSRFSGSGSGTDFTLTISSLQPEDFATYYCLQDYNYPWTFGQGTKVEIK", "fold", 2),
    ("H4H14475P (antibody, human IgG4, V domains shown, human IgG4 (H4H)) VH: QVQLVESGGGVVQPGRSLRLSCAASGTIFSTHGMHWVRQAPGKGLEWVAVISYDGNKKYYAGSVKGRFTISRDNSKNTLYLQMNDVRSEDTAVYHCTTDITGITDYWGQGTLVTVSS VL: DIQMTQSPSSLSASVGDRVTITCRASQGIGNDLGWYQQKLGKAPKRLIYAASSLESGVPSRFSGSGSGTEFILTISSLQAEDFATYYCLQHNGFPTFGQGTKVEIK", "fold", 0),
    ("H4H14516P (antibody, human IgG4, V domains shown, human IgG4 (H4H)) VH: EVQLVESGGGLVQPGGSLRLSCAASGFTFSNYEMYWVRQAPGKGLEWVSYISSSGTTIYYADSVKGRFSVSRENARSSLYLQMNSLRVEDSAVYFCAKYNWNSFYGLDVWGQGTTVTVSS VL: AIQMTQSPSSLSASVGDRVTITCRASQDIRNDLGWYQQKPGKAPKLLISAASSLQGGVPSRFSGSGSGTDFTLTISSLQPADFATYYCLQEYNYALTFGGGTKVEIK", "fold", 1),
]
